assay-comment: Biodistribution in PC-3 tumor-bearing CB17-SCID mice
Assay type: in vivo
protocol-conditions: mouse, kidney, intravenous, 100 pmol, ^177Lu-labeled; 1 h p.i.; 100 pmol; n = 4; read-out: Uptake in Kidney
Starred links: 1 amine or outer side, 2 acyl side, 3 side chain; linkers in the order of their positions; H or OH if unused. Non-standard residues stand in square brackets, D forms with d. Residues, ends and D or L forms follow the SMILES beside them. *: point of attachment. DOTA = O=C(O)CN1CCN(CC(=O)O)CCN(CC(=O)*)CCN(CC(=O)O)CC1; Sta = CC(C)C[C@H](N)[C@@H](O)CC(=O)O; Bta = N[C@@H](Cc1csc2ccccc12)C(=O)O; X1 = O=C(CN1CCC(N[*:1])CC1)[*:2]; hSer = N[C@@H](CCO)C(=O)O
As shown below, each of these compounds has a reported tissue uptake at 1 h value.
Response body: numeric value in %ID/g, unit text excluded.

compound | display-unit | result-number
CC(C)C[C@H](NC(=O)C[C@H](O)[C@H](CC(C)C)NC(=O)[C@H](Cc1c[nH]cn1)NC(=O)CNC(=O)[C@@H](NC(=O)[C@H](C)NC(=O)[C@H](Cc1csc2ccccc12)NC(=O)[C@H](CCC(N)=O)NC(=O)[C@@H](Cc1ccccc1)NC(=O)CN1CCC(NC(=O)CN2CCN(CC(=O)O)CCN(CC(=O)O)CCN(CC(=O)O)CC2)CC1)C(C)C)C(N)=O [[^177Lu]Lu-[Bta^8]RM2, metal not drawn] ({DOTA}-[X1][dF]Q[Bta]AVGH[Sta]L-NH2) | %ID/g | 4.4

Then there is this compound:
// query Would you kindly share the measured tissue uptake at 1 h for CC(C)C[C@H](NC(=O)C[C@H](O)[C@H](CC(C)C)NC(=O)[C@H](Cc1c[nH]cn1)NC(=O)CNC(=O)[C@@H](NC(=O)[C@H](C)NC(=O)[C@H](Cc1c[nH]c2ccccc12)NC(=O)[C@H](CCO)NC(=O)[C@@H](Cc1ccccc1)NC(=O)CN1CCC(NC(=O)CN2CCN(CC(=O)O)CCN(CC(=O)O)CCN(CC(=O)O)CC2)CC1)C(C)C)C(N)=O [[^177Lu]Lu-[Hse^7]RM2, metal not drawn] ({DOTA}-[X1][dF][hSer]WAVGH[Sta]L-NH2) ?
// result 4.8

* * *

assay-comment: Biodistribution in PC-3 tumor-bearing CB17-SCID mice
Type: in vivo
protocol-conditions: CB17-SCID, mouse, tumor and muscle, iv, 100 pmol, total radioactivity; ^68Ga-labeled; 1 h p.i.; n = 4; read-out: Tumor-to-Muscle ratio
Starred links: 1 amine or outer side, 2 acyl side, 3 side chain; linkers in the order of their positions; H or OH if unused. Non-standard residues stand in square brackets, D forms with d. Residues, ends and D or L forms follow the SMILES beside them. *: point of attachment. DOTA = O=C(O)CN1CCN(CC(=O)O)CCN(CC(=O)*)CCN(CC(=O)O)CC1; Sta = CC(C)C[C@H](N)[C@@H](O)CC(=O)O; Bta = N[C@@H](Cc1csc2ccccc12)C(=O)O; X1 = O=C(CN1CCC(N[*:1])CC1)[*:2]; hSer = N[C@@H](CCO)C(=O)O
result-type: tissue to tissue ratio at 1 h
Quick one: just the number, no unit, thanks!

compound | tissue to tissue ratio at 1 h
CC(C)C[C@H](NC(=O)C[C@H](O)[C@H](CC(C)C)NC(=O)[C@H](Cc1c[nH]cn1)NC(=O)CNC(=O)[C@@H](NC(=O)[C@H](C)NC(=O)[C@H](Cc1c[nH]c2ccccc12)NC(=O)[C@H](CCO)NC(=O)[C@@H](Cc1ccccc1)NC(=O)CN1CCC(NC(=O)CN2CCN(CC(=O)O)CCN(CC(=O)O)CCN(CC(=O)O)CC2)CC1)C(C)C)C(N)=O [[^68Ga]Ga-[Hse^7]RM2, metal not drawn] ({DOTA}-[X1][dF][hSer]WAVGH[Sta]L-NH2) | 22.8

Then there is this compound:
// query Would you kindly share the measured tissue to tissue ratio at 1 h for CC(C)C[C@H](NC(=O)C[C@H](O)[C@H](CC(C)C)NC(=O)[C@H](Cc1c[nH]cn1)NC(=O)CNC(=O)[C@@H](NC(=O)[C@H](C)NC(=O)[C@H](Cc1csc2ccccc12)NC(=O)[C@H](CCC(N)=O)NC(=O)[C@@H](Cc1ccccc1)NC(=O)CN1CCC(NC(=O)CN2CCN(CC(=O)O)CCN(CC(=O)O)CCN(CC(=O)O)CC2)CC1)C(C)C)C(N)=O [[^68Ga]Ga-[Bta^8]RM2, metal not drawn] ({DOTA}-[X1][dF]Q[Bta]AVGH[Sta]L-NH2) ?
// result 50.6

* * *

assay-comment: Biodistribution in PC-3 tumor-bearing CB17-SCID mice
Type: in vivo
protocol-conditions: mouse, stomach, intravenous, 100 pmol, ^177Lu-labeled; 1 h p.i.; 100 pmol; n = 4; read-out: Uptake in Stomach
Starred links: 1 amine or outer side, 2 acyl side, 3 side chain; linkers in the order of their positions; H or OH if unused. Non-standard residues stand in square brackets, D forms with d. Residues, ends and D or L forms follow the SMILES beside them. *: point of attachment. DOTA = O=C(O)CN1CCN(CC(=O)O)CCN(CC(=O)*)CCN(CC(=O)O)CC1; Sta = CC(C)C[C@H](N)[C@@H](O)CC(=O)O; Bta = N[C@@H](Cc1csc2ccccc12)C(=O)O; X1 = O=C(CN1CCC(N[*:1])CC1)[*:2]; hSer = N[C@@H](CCO)C(=O)O
As shown below, each of these molecules has a reported tissue uptake at 1 h value.
Response body: numeric value in %ID/g, unit text excluded.

molecule | tissue uptake at 1 h [%ID/g]
CC(C)C[C@H](NC(=O)C[C@H](O)[C@H](CC(C)C)NC(=O)[C@H](Cc1c[nH]cn1)NC(=O)CNC(=O)[C@@H](NC(=O)[C@H](C)NC(=O)[C@H](Cc1c[nH]c2ccccc12)NC(=O)[C@H](CCO)NC(=O)[C@@H](Cc1ccccc1)NC(=O)CN1CCC(NC(=O)CN2CCN(CC(=O)O)CCN(CC(=O)O)CCN(CC(=O)O)CC2)CC1)C(C)C)C(N)=O [[^177Lu]Lu-[Hse^7]RM2, metal not drawn] ({DOTA}-[X1][dF][hSer]WAVGH[Sta]L-NH2) | 2.2

// query Would you kindly share the measured tissue uptake at 1 h for CC(C)C[C@H](NC(=O)C[C@H](O)[C@H](CC(C)C)NC(=O)[C@H](Cc1c[nH]cn1)NC(=O)CNC(=O)[C@@H](NC(=O)[C@H](C)NC(=O)[C@H](Cc1csc2ccccc12)NC(=O)[C@H](CCC(N)=O)NC(=O)[C@@H](Cc1ccccc1)NC(=O)CN1CCC(NC(=O)CN2CCN(CC(=O)O)CCN(CC(=O)O)CCN(CC(=O)O)CC2)CC1)C(C)C)C(N)=O [[^177Lu]Lu-[Bta^8]RM2, metal not drawn] ({DOTA}-[X1][dF]Q[Bta]AVGH[Sta]L-NH2) ?
// result 1.3

* * *

assay-comment: Biodistribution in PC-3 tumor-bearing CB17-SCID mice
Type: in vivo
protocol-conditions: mouse, adrenal, intravenous, 100 pmol, ^177Lu-labeled; 1 h p.i.; 100 pmol; n = 4; read-out: Uptake in Adrenal
Experimental: To establish tumor xenografts, PC-3 cells (5.0 × 10^6 cells per 200 µL) were suspended in a 1/1 mixture (v/v) of Dulbecco’s modified eagle's medium/Ham’s F-12 with Glutamax-I (v/v = 1/1) and Cultrex® Basement Membrane Matrix Type 3 (Trevigen Inc., Gaithersburg, MD, USA) and inoculated subcutaneously onto the right shoulder of CB17-SCID mice (Charles River Laboratories International Inc., Sulzfeld, Germany). […] Biodistribution. […] Selected organs were removed, weighted and measured in a γ-counter.
Starred links: 1 amine or outer side, 2 acyl side, 3 side chain; linkers in the order of their positions; H or OH if unused. Non-standard residues stand in square brackets, D forms with d. Residues, ends and D or L forms follow the SMILES beside them. *: point of attachment. DOTA = O=C(O)CN1CCN(CC(=O)O)CCN(CC(=O)*)CCN(CC(=O)O)CC1; Sta = CC(C)C[C@H](N)[C@@H](O)CC(=O)O; Bta = N[C@@H](Cc1csc2ccccc12)C(=O)O; X1 = O=C(CN1CCC(N[*:1])CC1)[*:2]; hSer = N[C@@H](CCO)C(=O)O
result-type: tissue uptake at 1 h (%ID/g)
Response body: numeric value in %ID/g, unit text excluded.

// query Would you kindly share the measured tissue uptake at 1 h for CC(C)C[C@H](NC(=O)C[C@H](O)[C@H](CC(C)C)NC(=O)[C@H](Cc1c[nH]cn1)NC(=O)CNC(=O)[C@@H](NC(=O)[C@H](C)NC(=O)[C@H](Cc1csc2ccccc12)NC(=O)[C@H](CCC(N)=O)NC(=O)[C@@H](Cc1ccccc1)NC(=O)CN1CCC(NC(=O)CN2CCN(CC(=O)O)CCN(CC(=O)O)CCN(CC(=O)O)CC2)CC1)C(C)C)C(N)=O [[^177Lu]Lu-[Bta^8]RM2, metal not drawn] ({DOTA}-[X1][dF]Q[Bta]AVGH[Sta]L-NH2) ?
// result 1.1

// query Would you kindly share the measured tissue uptake at 1 h for CC(C)C[C@H](NC(=O)C[C@H](O)[C@H](CC(C)C)NC(=O)[C@H](Cc1c[nH]cn1)NC(=O)CNC(=O)[C@@H](NC(=O)[C@H](C)NC(=O)[C@H](Cc1c[nH]c2ccccc12)NC(=O)[C@H](CCO)NC(=O)[C@@H](Cc1ccccc1)NC(=O)CN1CCC(NC(=O)CN2CCN(CC(=O)O)CCN(CC(=O)O)CCN(CC(=O)O)CC2)CC1)C(C)C)C(N)=O [[^177Lu]Lu-[Hse^7]RM2, metal not drawn] ({DOTA}-[X1][dF][hSer]WAVGH[Sta]L-NH2) ?
// result 1.2
